// data source = PubChem BioAssay (NCI)

Test system: SR leukemia
Assay: NCI tumour cell line growth inhibition, 48 h
Catalogue of TGI values
Form entry: value (µM) — number only.

compound string: C[C@H]1CC[C@H]([C@@H](C)[C@H]2[C@@H](O)C[C@H]3[C@@H]4CC[C@H]5C[C@@H](O)CC[C@]5(C)[C@H]4CC[C@]23C)NC1
assay endpoint: TGI
observed: 24.7

Q: Field request: TGI | item: COc1c(C)c2c(c3c1c(=O)c1ccccc1n3C)C=CC(C)(C)O2
Ans: 58.6

Q: What does the data say about its TGI? Entry: CCOC(=O)Cc1nc2ccccc2s1
Ans: 48.9

Q: Name the reported TGI value associated with the compound O=Cc1ccc(-c2ccc(-c3nc4ccccc4[nH]3)cc2)s1
Ans: 98.7
